// note: pKi values for Adenosine receptor A1 (Rattus norvegicus) were reported in different studies
Target: Adenosine receptor A1 (Rattus norvegicus)
Sequence (P25099 whole entry): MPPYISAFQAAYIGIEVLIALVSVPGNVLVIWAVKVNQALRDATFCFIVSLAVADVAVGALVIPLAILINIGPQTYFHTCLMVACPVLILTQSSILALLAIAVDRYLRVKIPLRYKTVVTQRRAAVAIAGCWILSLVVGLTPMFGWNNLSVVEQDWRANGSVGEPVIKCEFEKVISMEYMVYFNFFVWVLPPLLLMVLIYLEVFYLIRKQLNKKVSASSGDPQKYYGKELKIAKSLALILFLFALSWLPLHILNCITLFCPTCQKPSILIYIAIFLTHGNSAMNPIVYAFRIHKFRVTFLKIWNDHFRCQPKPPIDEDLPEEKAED
Kindly note that pKi refers to -log10 of the concentration in mol/L and answer with the value alone.

INSERT INTO assay_data (molecule, measurement_target, measured_number) VALUES
  ('CCCc1nc(N)c2ncn(C3O[C@H](CO)[C@@H](O)[C@H]3O)c2n1 (stereo not given in full)', 'Adenosine receptor A1 (Rattus norvegicus)', 6.81),
  ('CCCCCCOc1nc(N)c2ncn(C3O[C@H](CO)[C@@H](O)[C@H]3O)c2n1 (stereo not given in full)', 'Adenosine receptor A1 (Rattus norvegicus)', 6.05),
  ('CN(CCN1CCN(c2c(F)cc(F)cc2F)CC1)c1cc2nc(-c3ccco3)nn2c(N)n1', 'Adenosine receptor A1 (Rattus norvegicus)', 6.10),
  ('CCCn1c(=O)c2c(nc3n2CCCN3Cc2ccc(F)cc2)n(CCC)c1=O', 'Adenosine receptor A1 (Rattus norvegicus)', 6.15);

Ask: Need pKi, item CCOc1ccc2c(c1)C(Nc1ncnc3c1ncn3[C@@H]1O[C@H](CO)[C@@H](O)[C@H]1O)CCC2 (stereo not given in full)
Result: 7.16

Ask: GET /values?readout=pKi&item= O=C(Nc1nc(-c2ccccc2)ns1)c1ccc(O)cc1
Result: 8.14

Ask: GET /values?readout=pKi&item= Cn1c(=O)c2cc(-c3ccccc3)n(C)c2n(C)c1=O
Result: 4.96

* * *

Ki for Adenosine receptor A1 (Rattus norvegicus, UniProt P25099), merged from several publications.
Please use Y for Ki under 200 nM and N for everything else, ties included.

INSERT INTO results (molecule, class) VALUES
  ('Nc1nc(C(=O)NCCCc2ccccc2)cn2nc(-c3ccco3)nc12', 'N'),
  ('OC[C@H]1OC(n2cnc3c(NC4CCCCC4)nc(Sc4ccccc4)nc32)[C@H](O)[C@@H]1O (stereo not given in full)', 'Y'),
  ('OC[C@@H]1OC(n2cnc3c2N=CN2C[C@@H](c4ccccc4)N=C32)[C@@H](O)[C@H]1O (stereo not given in full)', 'N'),
  ('CCCCOc1nc(N)c2ncn(C3O[C@H](CO)[C@@H](O)[C@H]3O)c2n1 (stereo not given in full)', 'N');

Please turn your attention to the following entry.
Ask: Input CCC(C)Cn1ncc2c1nc(N)n1nc(-c3ccco3)nc21 (stereo not given) ; condition: Ki strictly below 200 nM. Does it hold?
Result: Y

* * *

Kindly find below log10 of Ki information for UniProtKB P25099 taken from the literature.
// stored as log10 of Ki expressed in nM

# count of solved cases: 3
INSERT INTO results (compound, measured_number) VALUES
  ('CCCCC#Cc1nc(N)c2ncn([C@@H]3O[C@H](CCl)[C@@H](O)[C@H]3O)c2n1', 2.34),
  ('CCNC(=O)[C@H]1OC(n2cnc3c(N)nc(C#CCN4CCCCC4)nc32)[C@H](O)[C@@H]1O (some centres undefined)', 1.44),
  ('CSc1nc(SC)c2c3c(n(-c4ccccc4)c2n1)CCCC3', 4.99);

Ask: Which measured log10 of Ki belongs to O=[N+]([O-])c1nc(NC2CCCC2)c2ncn([C@@H]3O[C@H](CO)[C@@H](O)[C@H]3O)c2n1 , tested on UniProtKB P25099?
Result: 1.67

Ask: Please state recorded log10 of Ki (tested on UniProtKB P25099) of C=CCn1c(=O)c2c(nc(-c3ccccc3)n2C)n(C)c1=O
Result: 3.95

Ask: What log10 of Ki appears in the records for this compound with UniProtKB P25099? CCCCSc1sc(C(=O)OCC)c2c1C(=O)CCC2
Result: 3.15

Ask: Provide value of log10 of Ki for this record tested with UniProtKB P25099: OC[C@H]1O[C@@H](n2cnc3c(NCc4cccc5ccccc45)nc(NC4CCCCC4)nc32)[C@H](O)[C@@H]1O
Result: 4.65

Ask: Which log10 of Ki is reported with UniProtKB P25099 for this entry: Cn1c(=O)c2nc(CCCC(=O)O)[nH]c2n(C)c1=S ?
Result: 3.76

Ask: API: value(readout=log10 of Ki, system=UniProtKB P25099) for record CC(=O)NCCNC(=O)Cc1ccc(NC(=O)Cc2ccc(Nc3ncnc4c3ncn4C3O[C@H](CO)[C@@H](O)[C@H]3O)cc2)cc1 (some centres undefined)
Result: 0.97
